Biological target: T1, FZD6 cysteine-rich domain (CRD), MYC-tagged and GPI-anchored on CHO cells (human, UniProt O60353 20-146, GPI anchor)
T1 construct: also called FZD6 CRD; CHO-myc-FZDGPI; not shown: MYC tag and GPI anchor signal
T1 sequence: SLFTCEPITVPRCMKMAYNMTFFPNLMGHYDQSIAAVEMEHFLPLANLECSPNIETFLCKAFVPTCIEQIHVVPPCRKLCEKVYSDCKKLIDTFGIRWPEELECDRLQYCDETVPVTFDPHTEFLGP
Experiment: immunofluorescence, CHO-CRD cells

| BINDER | binding result |
| --- | --- |
| Fab-2924 (Fab, V domains shown, Fab; also called Fv-2924) VH: EVQLVESGGGLVQPGGSLRLSCAASGFNISYSYIHWVRQAPGKGLEWVASIYSYYSSTSYADSVKGRFTISADTSKNTAYLQMNSLRAEDTAVYYCARGALDYWGQGTLVTVSS VL: DIQMTQSPSSLSASVGDRVTITCRASQSVSSAVAWYQQKPGKAPKLLIYSASSLYSGVPSRFSGSRSGTDFTLTISSLQPEDFATYYCQQWYSGHSLITFGQGTKVEIK | no binding |
| Fab-2922 (Fab, V domains shown, Fab; also called Fv-2922) VH: EVQLVESGGGLVQPGGSLRLSCAASGFNIYSSYMHWVRQAPGKGLEWVASISPYSGYTSYADSVKGRFTISADTSKNTAYLQMNSLRAEDTAVYYCARTVRGSKKPYFSGWAMDYWGQGTLVTVSS VL: DIQMTQSPSSLSASVGDRVTITCRASQSVSSAVAWYQQKPGKAPKLLIYSASSLYSGVPSRFSGSRSGTDFTLTISSLQPEDFATYYCQQSFVYPYLITFGQGTKVEIK | no binding |
| Fab-2934 (Fab, V domains shown, Fab; also called Fv-2934) VH: EVQLVESGGGLVQPGGSLRLSCAASGFNISYSYMHWVRQAPGKGLEWVASIYSSSGSTSYADSVKGRFTISADTSKNTAYLQMNSLRAEDTAVYYCARGAIDYWGQGTLVTVSS VL: DIQMTQSPSSLSASVGDRVTITCRASQSVSSAVAWYQQKPGKAPKLLIYSASSLYSGVPSRFSGSRSGTDFTLTISSLQPEDFATYYCQQWYHYGLITFGQGTKVEIK | no binding |

// data source = patent US20210253718A1
